Numbers sourced from ChEMBL document CHEMBL5223174.

- system-name: Acetylcholinesterase (Electrophorus electricus, UniProt O42275)
- Sequence (O42275 whole entry): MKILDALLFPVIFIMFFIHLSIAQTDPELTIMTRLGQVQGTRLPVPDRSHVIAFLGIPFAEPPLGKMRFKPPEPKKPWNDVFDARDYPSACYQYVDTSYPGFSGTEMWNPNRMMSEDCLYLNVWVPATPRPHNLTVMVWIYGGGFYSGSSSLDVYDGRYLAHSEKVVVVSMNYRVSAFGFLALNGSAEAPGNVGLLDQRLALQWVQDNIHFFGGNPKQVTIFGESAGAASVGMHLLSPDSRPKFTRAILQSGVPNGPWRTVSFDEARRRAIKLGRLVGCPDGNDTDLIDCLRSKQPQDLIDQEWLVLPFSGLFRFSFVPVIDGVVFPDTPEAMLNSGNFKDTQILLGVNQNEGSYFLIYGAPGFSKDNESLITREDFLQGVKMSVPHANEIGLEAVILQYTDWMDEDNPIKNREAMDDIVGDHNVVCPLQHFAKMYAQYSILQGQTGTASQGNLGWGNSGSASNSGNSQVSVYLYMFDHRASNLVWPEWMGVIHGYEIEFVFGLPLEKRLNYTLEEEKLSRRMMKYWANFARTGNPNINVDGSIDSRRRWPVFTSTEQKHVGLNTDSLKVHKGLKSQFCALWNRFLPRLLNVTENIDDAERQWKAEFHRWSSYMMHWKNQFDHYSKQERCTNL
- experiment: Inhibition of electric eel AChE
- run-conditions: read-out: IC50
recorded-endpoint: log10(IC50) (log10 of the value in µM)
Please interpret these as log10 of IC50 where IC50 is in µM.

Some entries whose results are on file:
Nc1ccccc1NC(=O)c1ccc(CNCC2CCN(Cc3ccccc3)CC2)cc1	0.99
O=C(NO)c1ccc(C(=O)NCC2CCN(Cc3ccccc3)CC2)cc1	1.60

Q: So what's the measured log10(IC50) for this one? `Nc1ccccc1NC(=O)CCc1ccc(C(=O)NCC2CCN(Cc3ccccc3)CC2)cc1`
Result: 0.96

Q: So what's the measured log10(IC50) for this one? `O=C(NO)c1cccc(S(=O)(=O)NCC2CCN(Cc3ccccc3)CC2)c1`
Result: 1.28

Q: So what's the measured log10(IC50) for this one? `COc1cc(/C=C/C(=O)Nc2ccccc2N)ccc1C(=O)NCC1CCN(Cc2ccccc2)CC1`
Result: 0.95

Q: So what's the measured log10(IC50) for this one? `O=C(CCCCCC(=O)NCC1CCN(Cc2ccccc2)CC1)NO`
Result: 1.52

Q: So what's the measured log10(IC50) for this one? `COc1cc(CCC(=O)Nc2ccccc2N)ccc1C(=O)NCC1CCN(Cc2ccccc2)CC1`
Result: 1.50

Q: So what's the measured log10(IC50) for this one? `Nc1ccccc1NC(=O)c1ccc(/C=C/C(=O)NCC2CCN(Cc3ccccc3)CC2)cc1`
Result: 0.33

Q: So what's the measured log10(IC50) for this one? `Nc1ccccc1NC(=O)CCc1cccc(C(=O)NCC2CCN(Cc3ccccc3)CC2)c1`
Result: 1.00

Q: So what's the measured log10(IC50) for this one? `Nc1ccccc1NC(=O)c1cccc(S(=O)(=O)NCC2CCN(Cc3ccccc3)CC2)c1`
Result: 0.87

Q: So what's the measured log10(IC50) for this one? `O=C(CCCCCCCC(=O)NCC1CCN(Cc2ccccc2)CC1)NO`
Result: 1.42

Q: So what's the measured log10(IC50) for this one? `O=C(/C=C/c1ccc(C(=O)NO)cc1)NCC1CCN(Cc2ccccc2)CC1`
Result: 0.61

Q: So what's the measured log10(IC50) for this one? `COc1cc(CCC(=O)NO)ccc1C(=O)NCC1CCN(Cc2ccccc2)CC1`
Result: 0.84

Q: So what's the measured log10(IC50) for this one? `O=C(/C=C/c1cccc(C(=O)NCC2CCN(Cc3ccccc3)CC2)c1)NO`
Result: 1.16

====

Listing of recorded IC50 by entry.
- system-name: Cholinesterase (Equus caballus)
- experiment: Inhibition of equine serum BChE
- Assay type: cell-free
- run-conditions: read-out: IC50
The reply should contain only the number, in µM.

Some entries whose results are on file:
Nc1ccccc1NC(=O)c1ccc(CNCC2CCN(Cc3ccccc3)CC2)cc1	12.6
Nc1ccccc1NC(=O)c1cccc(C(=O)NCC2CCN(Cc3ccccc3)CC2)c1	7.96
O=C(CCCCCCCC(=O)NCC1CCN(Cc2ccccc2)CC1)NO	13.7

Q: So what's the measured IC50 for this one? `Nc1ccccc1NC(=O)CCCCCC(=O)NCC1CCN(Cc2ccccc2)CC1`
Result: 6.19

Q: So what's the measured IC50 for this one? `O=C(NO)c1ccc(C(=O)NCC2CCN(Cc3ccccc3)CC2)cc1`
Result: 3.28

====

Listing of recorded IC50 by entry.
- system-name: Acetylcholinesterase (Electrophorus electricus, UniProt O42275)
- experiment: Inhibition of electric eel AChE
- run-conditions: read-out: IC50

Some entries whose results are on file:
Nc1ccccc1NC(=O)CCCCCCCC(=O)NCC1CCN(Cc2ccccc2)CC1	11.5 µM
O=C(/C=C/c1ccc(C(=O)NCC2CCN(Cc3ccccc3)CC2)cc1)NO	8.18 µM
Nc1ccccc1NC(=O)CCCCCC(=O)NCC1CCN(Cc2ccccc2)CC1	7.06 µM
O=C(NO)c1ccc(CNCC2CCN(Cc3ccccc3)CC2)cc1	6.03 µM

# context switch: different compound, same IC50
Q: So what's the measured IC50 for this one? `COc1cc(/C=C/C(=O)NO)ccc1C(=O)NCC1CCN(Cc2ccccc2)CC1`
Result: 24.6 µM

====

- system-name: Cholinesterase (Equus caballus, UniProt P81908)
- Sequence (P81908 whole entry): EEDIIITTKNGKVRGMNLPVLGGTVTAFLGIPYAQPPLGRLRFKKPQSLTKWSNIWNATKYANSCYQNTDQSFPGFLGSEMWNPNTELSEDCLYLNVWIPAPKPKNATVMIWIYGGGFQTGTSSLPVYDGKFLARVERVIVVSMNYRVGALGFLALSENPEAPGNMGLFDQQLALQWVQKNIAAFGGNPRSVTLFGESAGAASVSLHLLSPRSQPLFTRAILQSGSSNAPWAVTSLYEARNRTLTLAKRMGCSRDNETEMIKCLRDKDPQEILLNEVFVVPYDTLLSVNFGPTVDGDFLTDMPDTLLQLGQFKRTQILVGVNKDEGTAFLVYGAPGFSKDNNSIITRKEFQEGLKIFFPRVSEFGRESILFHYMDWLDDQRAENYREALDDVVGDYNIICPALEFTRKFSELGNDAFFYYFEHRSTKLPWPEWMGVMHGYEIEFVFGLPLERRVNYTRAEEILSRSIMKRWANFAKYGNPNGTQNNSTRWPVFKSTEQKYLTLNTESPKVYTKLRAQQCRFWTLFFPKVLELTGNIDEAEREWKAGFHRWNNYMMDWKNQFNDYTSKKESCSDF
- experiment: Inhibition of equine serum BChE
- Type: cell-free
- run-conditions: read-out: IC50
IC50 strictly less than 10 µM = met. Otherwise not met.

Q: Is IC50 of `COc1cc(CCC(=O)Nc2ccccc2N)ccc1C(=O)NCC1CCN(Cc2ccccc2)CC1` strictly below 10 µM?
Result: not met

====

- system-name: Cholinesterase (Equus caballus, UniProt P81908)
- experiment: Inhibition of equine serum BChE
- Assay type: cell-free
- run-conditions: read-out: IC50
recorded-endpoint: IC50
The answer should read as a number with its unit following.

Q: // lookup IC50 | system=Cholinesterase (Equus caballus, UniProt P81908) | key= `Nc1ccccc1NC(=O)c1ccc(/C=C/C(=O)NCC2CCN(Cc3ccccc3)CC2)cc1`
Result: 15.6 µM

Q: // lookup IC50 | system=Cholinesterase (Equus caballus, UniProt P81908) | key= `O=C(NO)c1ccc(CNCC2CCN(Cc3ccccc3)CC2)cc1`
Result: 13.2 µM

Q: // lookup IC50 | system=Cholinesterase (Equus caballus, UniProt P81908) | key= `Nc1ccccc1NC(=O)CCc1ccc(C(=O)NCC2CCN(Cc3ccccc3)CC2)cc1`
Result: 13.4 µM

Q: // lookup IC50 | system=Cholinesterase (Equus caballus, UniProt P81908) | key= `Nc1ccccc1NC(=O)CCc1cccc(C(=O)NCC2CCN(Cc3ccccc3)CC2)c1`
Result: 9.49 µM
